Origin of the recorded values: patent US20210363170A1

System: CEM cells
Experiment: Deoxycytidine kinase (dCK) activity: CEM cell viability with or without 2'-deoxycytidine
Type: cell-based
Conditions: Homo sapiens, CCRF-CEM; CEM cells, without 2'-deoxycytidine, 72 hours; read-out: CEM IC50 (μM) Without dCyd

compound	targetEntity	IC50
Nc1ncn([C@H]2C[C@H](O)[C@@H](CO)S2)c(=O)n1 [Aza-T-dCyd, 5-aza-4′-Thio-2′-deoxycytidine, reference compound]	CEM cells	0.03 µM

* * *

System: DNMT-1
Test: Western blot analysis of DNMT-1 in CEM cells
Type: cell-based
Details: DNMT-1 depletion in CEM cells, 96 hours, listed as 10 Diastereomer 2

molecule	targetEntity	IC50 / nM
CC(C)COC(=O)[C@H](C)NP(=O)(OC[C@H]1S[C@@H](n2cnc(N)nc2=O)CC1O)Oc1cccc2ccccc12 (single isomer, unassigned) [Compound 10 Diastereomer 2]	DNMT-1	800

* * *

Tested on: KG-1a cells
Experiment: Cell viability assay (CellTiter Glo, 72 hours) in KG-1a cells
Format: cell-based
Settings: Homo sapiens, KG-1a, 72 h, read-out: Cell Line IC50 (μM) KG-1a
Friendly reminder: IC50 below 0.6 µM is yes, at or above is no.

molecule	categoryLabel
COC(=O)[C@H](C)N[P@](=O)(OC[C@H]1S[C@@H](n2cnc(N)nc2=O)C[C@@H]1O)Oc1ccccc1 [Compound 5]	no
C[C@H](N[P@](=O)(OC[C@H]1S[C@@H](n2cnc(N)nc2=O)C[C@@H]1O)Oc1ccccc1)C(=O)OCc1ccccc1 [Compound 1]	no
CC(C)OC(=O)[C@H](C)N[P@](=O)(OC[C@H]1S[C@@H](n2ccc(N)nc2=O)CC1O)Oc1ccccc1 (stereo partly shown) [Compound 15]	no
C[C@H](N[P@](=O)(OC[C@H]1S[C@@H](n2cnc(N)nc2=O)C[C@@H]1O)Oc1ccccc1)C(=O)OCc1ccc([N+](=O)[O-])o1 [Compound 7]	no
CCC(CC)COC(=O)[C@H](C)N[P@](=O)(OC[C@H]1S[C@@H](n2ccc(N)nc2=O)CC1O)Oc1ccccc1 (stereo partly shown) [Compound 14]	no
CC(C)COC(=O)[C@H](C)N[P@](=O)(OC[C@H]1S[C@@H](n2cnc(N)nc2=O)C[C@@H]1O)Oc1ccccc1 [Compound 2]	no
CCOC(=O)[C@H](C)N[P@](=O)(OC[C@H]1S[C@@H](n2cnc(N)nc2=O)C[C@@H]1O)Oc1ccccc1 [Compound 6]	yes
CC(C)COC(=O)[C@H](C)NP(=O)(OC[C@H]1S[C@@H](n2cnc(N)nc2=O)CC1O)Oc1cccc2ccccc12 (single isomer, unassigned) [Compound 10 Diastereomer 1]	yes
CC(C)OC(=O)[C@H](C)N[P@](=O)(OC[C@H]1S[C@@H](n2cnc(N)nc2=O)C[C@@H]1O)Oc1ccccc1 [Compound 4]	yes

* * *

System: DNMT-1
Experiment: Western blot analysis of DNMT-1 in CEM cells
Assay type: cell-based
Details: DNMT-1 depletion in CEM cells, 96 hours, listed as 8 Diastereomer 2

compound	targetEntity	unitAbbrev	IC50
C[C@H](NP(=O)(OC[C@H]1S[C@@H](n2cnc(N)nc2=O)CC1O)Oc1ccccc1)C(=O)OC1CCCC1 (single isomer, unassigned) [Compound 8 Diastereomer 2]	DNMT-1	µM	0.45

* * *

Tested on: DNMT-1
Assay: Western blot analysis of DNMT-1 in CEM cells
Type: cell-based
Conditions: DNMT-1 depletion in CEM cells, 96 hours, listed as 12 Diastereomer 1
metric: IC50 (nM)

compound	observedResult
CC(C)OC(=O)[C@H](C)NP(=O)(OC[C@H]1S[C@@H](n2cnc(N)nc2=O)C[C@@H]1O)Oc1cccc2ccccc12 (single isomer, unassigned) [Compound 12 Diastereomer 1]	800
